Molecular target: recombinant human VAP-1 (Homo sapiens, UniProt Q16853)
Construct: purchased R&D systems
Sequence (Q16853 1-763): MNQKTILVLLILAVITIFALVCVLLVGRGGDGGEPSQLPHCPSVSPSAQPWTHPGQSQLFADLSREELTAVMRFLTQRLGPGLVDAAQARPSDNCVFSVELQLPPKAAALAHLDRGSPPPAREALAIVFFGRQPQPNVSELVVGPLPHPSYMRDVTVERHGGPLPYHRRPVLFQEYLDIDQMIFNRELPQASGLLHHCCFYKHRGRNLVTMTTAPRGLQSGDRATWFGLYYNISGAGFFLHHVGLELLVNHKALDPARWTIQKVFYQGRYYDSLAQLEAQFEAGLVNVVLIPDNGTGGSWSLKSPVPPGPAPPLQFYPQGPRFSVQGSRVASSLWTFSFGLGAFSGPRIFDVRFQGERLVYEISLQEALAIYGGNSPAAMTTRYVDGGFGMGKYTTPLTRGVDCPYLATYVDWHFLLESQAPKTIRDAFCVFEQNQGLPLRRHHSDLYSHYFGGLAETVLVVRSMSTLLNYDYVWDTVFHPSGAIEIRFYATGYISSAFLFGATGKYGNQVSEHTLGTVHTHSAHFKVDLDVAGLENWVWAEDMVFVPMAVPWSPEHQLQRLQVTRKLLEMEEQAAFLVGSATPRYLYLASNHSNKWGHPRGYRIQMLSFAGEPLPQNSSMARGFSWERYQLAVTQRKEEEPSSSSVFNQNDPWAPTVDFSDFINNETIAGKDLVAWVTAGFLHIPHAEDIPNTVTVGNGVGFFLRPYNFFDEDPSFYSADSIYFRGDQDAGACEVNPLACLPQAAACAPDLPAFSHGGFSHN
Test: Amplex Red HRP-coupled amine oxidase activity evaluation, recombinant human VAP-1
Assay type: biochemical
Details: substrate 1 mM benzylamine; 30 min preincubation at 37° C.; read-out: Inhibitory Activity (IC50, nM) human VAP-1
Counter-ions that a name gives are not always drawn.
measured_property: IC50 (nM)
Numeric only. Scale: nM

Below, each entry is followed by its recorded IC50 result.
- compound: "Cc1nn(CC(CN)=C(F)F)c(=O)n1Cc1ccc(-c2ccc3c(c2)OCO3)s1 [Example 6, trifluoroacetate]"
  target: "recombinant human VAP-1 (Homo sapiens, UniProt Q16853)"
  IC50, nM: 2.5
- compound: "Cc1cc(-c2ccc(Cn3nnn(CC(CN)=C(F)F)c3=O)s2)cc2c1NC(=O)CC2 [Example 45, trifluoroacetate]"
  target: "recombinant human VAP-1 (Homo sapiens, UniProt Q16853)"
  IC50, nM: 0.6
- compound: "Cc1nn(CC(CN)=C(F)F)c(=O)n1Cc1ccc(-c2ccc(S(C)(=O)=O)cc2)s1 [Example 2, trifluoroacetate]"
  target: "recombinant human VAP-1 (Homo sapiens, UniProt Q16853)"
  IC50, nM: 1.8

Exam item: Please give the measured IC50 for this compound: CCn1cc(-c2cccc(Cn3nnn(CC(CN)=C(F)F)c3=O)c2)ccc1=O [Example 34, trifluoroacetate]
Marked response: 0.6

Exam item: Please give the measured IC50 for this compound: CS(=O)(=O)c1ccc(-c2csc(-n3nnn(CC(CN)=C(F)F)c3=O)c2)cc1 [Example 35, trifluoroacetate]
Marked response: 0.4

Exam item: Please give the measured IC50 for this compound: NCC(Cn1nnn(-c2ccc(-c3ccc4c(c3)OCO4)cc2)c1=O)=C(F)F [Example 19, trifluoroacetate]
Marked response: 0.5

Exam item: Please give the measured IC50 for this compound: CCn1cc(-c2ccc(Cn3nnn(CC(CN)=C(F)F)c3=O)s2)cn1 [Example 47, trifluoroacetate]
Marked response: 0.5

---

molecular target: recombinant human VAP-1 (Homo sapiens, UniProt Q16853); construct: purchased R&D systems; experiment: Amplex Red HRP-coupled amine oxidase activity evaluation, recombinant human VAP-1; format: biochemical; details: substrate 1 mM benzylamine; 30 min preincubation at 37° C.; read-out: Inhibitory Activity (IC50, nM) human VAP-1
Where a name gives a salt, the structure may show the parent alone.
In this section we review reported IC50 values for a set of compounds.
Numeric only. Scale: nM

- compound: "CCn1cc(-c2cccc(-n3nnn(CC(CN)=C(F)F)c3=O)c2)ccc1=O [Example 12, di-trifluoroacetate]"
  units_text: "nM"
  IC50: 0.9
- compound: "Cc1nn(CC(CN)=C(F)F)c(=O)n1Cc1ccc(-c2ccc(N(C)C)nc2)s1 [Example 5, trifluoroacetate]"
  units_text: "nM"
  IC50: 2
- compound: "CCn1cc(-c2csc(-n3nnn(CC(CN)=C(F)F)c3=O)c2)ccc1=O [Example 37, trifluoroacetate]"
  units_text: "nM"
  IC50: 0.3
- compound: "CCn1cc(-c2cccc(Cn3nnn(CC(CN)=C(F)F)c3=O)c2)cn1 [Example 32, trifluoroacetate]"
  units_text: "nM"
  IC50: 0.4

Exam item: Please give the measured IC50 for this compound: Cc1cc(-c2cccc(-n3nnn(CC(CN)=C(F)F)c3=O)c2)cc2c1NC(=O)CC2 [Example 13, trifluoroacetate]
Marked response: 0.7

Exam item: Please give the measured IC50 for this compound: Cc1ccc(-c2cc(C)c3c(c2)CCC(=O)N3)nc1-n1nnn(CC(CN)=C(F)F)c1=O [Example 25, trifluoroacetate]
Marked response: 13

---

In this section we review reported IC50 values for a set of compounds.
Target: recombinant human MAO-A (monoamine oxidase-A) (Homo sapiens, UniProt P21397)
Construct: purchased Sigma-Aldrich
Sequence (P21397 1-527): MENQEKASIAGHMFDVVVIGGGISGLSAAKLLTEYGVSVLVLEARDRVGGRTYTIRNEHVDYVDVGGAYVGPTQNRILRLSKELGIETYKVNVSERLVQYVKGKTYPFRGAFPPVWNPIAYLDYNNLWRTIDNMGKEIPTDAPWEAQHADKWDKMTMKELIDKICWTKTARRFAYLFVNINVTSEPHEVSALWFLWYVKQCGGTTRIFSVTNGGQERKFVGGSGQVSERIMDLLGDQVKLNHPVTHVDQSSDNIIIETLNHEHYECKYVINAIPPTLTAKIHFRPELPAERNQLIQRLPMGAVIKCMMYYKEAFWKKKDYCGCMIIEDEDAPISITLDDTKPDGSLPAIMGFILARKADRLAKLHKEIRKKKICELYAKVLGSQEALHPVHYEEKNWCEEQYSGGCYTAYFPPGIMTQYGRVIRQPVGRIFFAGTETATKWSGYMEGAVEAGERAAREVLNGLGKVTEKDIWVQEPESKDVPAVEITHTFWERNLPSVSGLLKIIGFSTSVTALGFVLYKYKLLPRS
Experiment: Amplex Red HRP-coupled amine oxidase activity evaluation, recombinant human MAO-A
Format: biochemical
Conditions: substrate 0.5 mM tyramine; read-out: Inhibitory Activity (IC50, nM) MAO-A
Structures can show the parent of a compound that is named as a salt.
Numeric only. Scale: nM

Below, each entry is followed by its recorded IC50 result.
- compound: "Cc1cc(-c2csc(-n3nnn(CC(CN)=C(F)F)c3=O)c2)cc2c1NC(=O)CC2 [Example 40, trifluoroacetate]"
  target: "recombinant human MAO-A (monoamine oxidase-A) (Homo sapiens, UniProt P21397)"
  units_text: "nM"
  IC50: 56100
- compound: "CN1C(=O)CCc2cc(-c3ccc(Cn4nnn(CC(CN)=C(F)F)c4=O)s3)ccc21 [Example 46, trifluoroacetate]"
  target: "recombinant human MAO-A (monoamine oxidase-A) (Homo sapiens, UniProt P21397)"
  units_text: "nM"
  IC50: 63100

Exam item: Please give the measured IC50 for this compound: Cc1cc(-c2ccc(Cn3nnn(CC(CN)=C(F)F)c3=O)s2)cc2c1NC(=O)CC2 [Example 45, trifluoroacetate]
Marked response: 49200

---

In this section we review reported IC50 values for a set of compounds.
target: recombinant human DAO (diamine oxidase) (Homo sapiens, UniProt P19801); construct: purchased R&D systems; assay: Amplex Red HRP-coupled amine oxidase activity evaluation, recombinant human DAO; assay type: biochemical; settings: substrate 1 mM putrescine; read-out: Inhibitory Activity (IC50, nM) DAO
Sequence (P19801 20-751): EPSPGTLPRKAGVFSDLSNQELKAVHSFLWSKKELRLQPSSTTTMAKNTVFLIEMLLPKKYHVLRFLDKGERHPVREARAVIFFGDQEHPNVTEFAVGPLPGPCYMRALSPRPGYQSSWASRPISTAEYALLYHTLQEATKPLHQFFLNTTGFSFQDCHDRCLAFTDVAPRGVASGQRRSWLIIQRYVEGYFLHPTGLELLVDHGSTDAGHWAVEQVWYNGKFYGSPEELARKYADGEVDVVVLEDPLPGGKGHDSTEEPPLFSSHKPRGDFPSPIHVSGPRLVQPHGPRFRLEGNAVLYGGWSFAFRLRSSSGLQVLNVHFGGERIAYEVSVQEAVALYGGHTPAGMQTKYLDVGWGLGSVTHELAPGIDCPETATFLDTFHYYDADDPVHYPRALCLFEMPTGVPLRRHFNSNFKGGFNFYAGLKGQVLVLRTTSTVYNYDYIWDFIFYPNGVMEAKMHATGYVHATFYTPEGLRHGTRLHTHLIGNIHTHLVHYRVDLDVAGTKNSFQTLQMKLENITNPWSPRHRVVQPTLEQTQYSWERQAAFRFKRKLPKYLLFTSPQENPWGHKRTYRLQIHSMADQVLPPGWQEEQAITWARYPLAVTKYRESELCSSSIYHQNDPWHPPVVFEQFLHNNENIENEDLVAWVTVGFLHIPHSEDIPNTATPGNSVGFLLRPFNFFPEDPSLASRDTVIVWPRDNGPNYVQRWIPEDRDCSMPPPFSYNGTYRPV
Counter-ions that a name gives are not always drawn.
Numeric only. Scale: nM

Exam item: Please give the measured IC50 for this compound: Cc1cc(-c2cccc(Cn3nnn(CC(CN)=C(F)F)c3=O)c2)cc2c1NC(=O)CC2 [Example 31, trifluoroacetate]
Marked response: 127

Exam item: Please give the measured IC50 for this compound: Cc1cc(-c2cccc(-n3nnn(CC(CN)=C(F)F)c3=O)c2)cc2c1NC(=O)CC2 [Example 13, trifluoroacetate]
Marked response: 12

---

target: recombinant human VAP-1 (Homo sapiens, UniProt Q16853); construct: purchased R&D systems; test: Amplex Red HRP-coupled amine oxidase activity evaluation, recombinant human VAP-1; assay type: biochemical; details: substrate 1 mM benzylamine; 30 min preincubation at 37° C.; read-out: Inhibitory Activity (IC50, nM) human VAP-1
Structures can show the parent of a compound that is named as a salt.
In this section we review reported IC50 values for a set of molecules.

- molecule: "CCn1cc(-c2ccc(-n3nnn(CC(CN)=C(F)F)c3=O)cc2)cn1 [Example 22, trifluoroacetate]"
  IC50: "0.3 nM"

Exam item: Value wanted: IC50 (recombinant human VAP-1 (Homo sapiens, UniProt Q16853)) of entry CN1C(=O)CCc2cc(-c3ccc(Cn4ccn(CC(CN)=C(F)F)c4=O)s3)ccc21 [Example 51, trifluoroacetate]
Marked response: 1.9 nM

Exam item: Value wanted: IC50 (recombinant human VAP-1 (Homo sapiens, UniProt Q16853)) of entry CCn1cc(-c2ccc(C)c(-n3nnn(CC(CN)=C(F)F)c3=O)n2)ccc1=O [Example 24, trifluoroacetate]
Marked response: > 100 nM

Exam item: Value wanted: IC50 (recombinant human VAP-1 (Homo sapiens, UniProt Q16853)) of entry CCn1cc(-c2ccc(-n3nnn(CC(CN)=C(F)F)c3=O)s2)ccc1=O [Example 9, trifluoroacetate]
Marked response: 0.4 nM
